Where these numbers come from: patent US20260297165

Assay system: C9 (human, UniProt P02748)
Sequence (P02748 22-559): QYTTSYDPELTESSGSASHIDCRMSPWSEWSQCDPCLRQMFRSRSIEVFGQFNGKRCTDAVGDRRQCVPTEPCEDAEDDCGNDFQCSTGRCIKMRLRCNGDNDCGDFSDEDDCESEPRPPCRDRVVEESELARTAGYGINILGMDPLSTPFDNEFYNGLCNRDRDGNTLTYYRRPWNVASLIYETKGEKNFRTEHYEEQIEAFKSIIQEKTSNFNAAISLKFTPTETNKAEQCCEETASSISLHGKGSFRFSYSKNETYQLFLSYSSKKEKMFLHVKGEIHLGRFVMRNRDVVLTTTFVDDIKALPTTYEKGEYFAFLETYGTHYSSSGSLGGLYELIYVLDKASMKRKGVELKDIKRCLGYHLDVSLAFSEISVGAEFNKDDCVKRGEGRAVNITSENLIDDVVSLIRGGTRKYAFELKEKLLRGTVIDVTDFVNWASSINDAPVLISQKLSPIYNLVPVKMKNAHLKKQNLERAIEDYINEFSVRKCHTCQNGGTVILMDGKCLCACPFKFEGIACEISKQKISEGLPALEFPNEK
Assay overview: other (MSD ECL)
pKd: −log10 of the molar value.
Below, each of the binders is paired with its reported pKd value.
Assay readout: pKd

# Binder, Assay readout, Measured result
rows = [
    ("sCD59 wild-type, in-house purified (protein) MGIQGGSVLFGLLLVLAVFCHSGHSLQCYNCPNPTADCKTAVNCSSDFDACLITKAGLQVYNKCWKFEHCNFNDVTTRLRENELTYYCCKKDLCNFNEQLEN", "pKd", 7.41),
    ("Vector MTA sCD59 S20G-6xHis (protein) MGIQGGSVLFGLLLVLAVFCHSGHSLQCYNCPNPTADCKTAVNCGSDFDACLITKAGLQVYNKCWKFEHCNFNDVTTRLRENELTYYCCKKDLCNFNEQLENHHHHHH", "pKd", 7.34),
    ("Vector MTC sCD59 T51G-6xHis (protein) MGIQGGSVLFGLLLVLAVFCHSGHSLQCYNCPNPTADCKTAVNCSSDFDACLITKAGLQVYNKCWKFEHCNFNDVGTRLRENELTYYCCKKDLCNFNEQLENHHHHHH", "pKd", 7.63),
    ("sCD59 (His)10 wild-type, commercial (protein) LQCYNCPNPTADCKTAVNCSSDFDACLITKAGLQVYNKCWKFEHCNFNDVTTRLRENELTYYCCKKDLCNFNEQLEN", "pKd", 7.48),
]
